Biological target: T1, recombinant mouse NKG2D-Fc (mouse; human, UniProt O54709 90-232)
T1 construct: extracellular domain; also called mouse NKG2D-Fc fusion protein; Mouse NKG2D-Fc-biotin; not shown: human IgG1 Fc domain
T1 sequence (looked up): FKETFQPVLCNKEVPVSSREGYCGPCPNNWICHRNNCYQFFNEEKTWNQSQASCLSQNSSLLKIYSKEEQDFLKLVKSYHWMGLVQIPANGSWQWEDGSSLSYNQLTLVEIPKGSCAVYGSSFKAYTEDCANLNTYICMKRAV
Assay: ELISA, NKG2D-Fc coated
OUTCOME_MEASURE: binding result

// query State the recorded binding result for this entry: ADI-27749 (antibody, V domains shown, also called A49) VH: EVQLVESGGGLVKPGGSLRLSCAASGFTFSSYSMNWVRQAPGKGLEWVSSISSSSSYIYYADSVKGRFTISRDNAKNSLYLQMNSLRAEDTAVYYCARGAPMGAAAGWFDPWGQGTLVTVSS VL: DIQMTQSPSSVSASVGDRVTITCRASQGISSWLAWYQQKPGKAPKLLIYAASSLQSGVPSRFSGSGSGTDFTLTISSLQPEDFATYYCQQGVSFPRTFGGGTKVEIK
// result binds

// query What do we get for ADI-29426 (antibody, V domains shown) VH: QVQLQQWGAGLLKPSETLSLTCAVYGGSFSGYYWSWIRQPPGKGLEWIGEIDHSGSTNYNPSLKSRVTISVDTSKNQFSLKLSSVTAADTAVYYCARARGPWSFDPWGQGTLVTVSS VL: DIQMTQSPSTLSASVGDRVTITCRASQSIGSWLAWYQQKPGKAPKLLIYKASSLESGVPSRFSGSGSGTEFTLTISSLQPDDFATYYCQQYHSFPTFGGGTKVEIK ?
// result binds
